Target: His-tagged human BCMA (ACRO Biosystems, Cat. #: BCA-H522y) (human)
Sequence (Q02223 1-54): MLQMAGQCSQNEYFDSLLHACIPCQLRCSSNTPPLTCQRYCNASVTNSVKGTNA
Assay: SPR (BIAcore T200) affinity ranking; crude sdAb captured via tag, antigen at 100 nM
Metric name: koff

*Q* Using the record for anti-BCMA sdAb BCMA12 (VHH, part only, affinity tag) VHH: QVHLVESGGGSVQAGGSLRLSCKSSGATYSSNCMAWFRQTPGKEREGVATIDLASHGTYYADSVKGRFTISRDNAKNTMYLQMSGLRPEDTALYYCAATSWWPCTTFNGGYASWGQGTQVTVSS , report its koff.
*A* 0.025 s⁻¹

*Q* What about this binder? anti-BCMA sdAb BCMA8 (VHH, part only, affinity tag) VHH: QVQLVESGGGSVQAGGSLRLSCAASGGTRSWNYMAWFRQAPGKEREDVAIIDNVGSTRYADSVKGRFTISQDTAQNTLYLQMNSLKPEDTAMYYCAARVSWCEDPPCGFDYWGQGTQVTVSS
*A* 0.37 s⁻¹

*Q* Also, anti-BCMA sdAb BCMA13 (VHH, part only, affinity tag) VHH: QVHLVESGGGSVQAGGSLRLSCKASGAIYDTNCMAWFRQTPGKEREGVATIDLGNPITYYADSVKGRFTISRDNAKNTMYLQMNSLKPEDTAMYYCAATSWWPCPANNVGYANWGQGTQVTVSS please.
*A* 0.053 s⁻¹

*Q* Try this binder next: anti-BCMA sdAb BCMA10 (VHH, part only, affinity tag) VHH: QVQLAESGGGLVQPGGSLRLSCAGSGFTFSSYDMNWVRQAPGKGLERVSTTFNGDDGTNYADSVLGRFTASRDKAKNTLYLQMNSLKTEDTAVYYCAAAVPGVDWYDTTRYKYWGQGTQVTVSS
*A* 0.13 s⁻¹
